molecular target: T1, human SIRPα1 expressed on cells (human, UniProt P78324 31-504); assay: flow cytometry, ExpiCHO-S cells
T1 construct: whole, on cells; also called huSIRPα1; ExpiCHO-S (huSIRPα1)
T1 sequence (P78324 other isoform, or with tags, fused parts or gaps limits assumed): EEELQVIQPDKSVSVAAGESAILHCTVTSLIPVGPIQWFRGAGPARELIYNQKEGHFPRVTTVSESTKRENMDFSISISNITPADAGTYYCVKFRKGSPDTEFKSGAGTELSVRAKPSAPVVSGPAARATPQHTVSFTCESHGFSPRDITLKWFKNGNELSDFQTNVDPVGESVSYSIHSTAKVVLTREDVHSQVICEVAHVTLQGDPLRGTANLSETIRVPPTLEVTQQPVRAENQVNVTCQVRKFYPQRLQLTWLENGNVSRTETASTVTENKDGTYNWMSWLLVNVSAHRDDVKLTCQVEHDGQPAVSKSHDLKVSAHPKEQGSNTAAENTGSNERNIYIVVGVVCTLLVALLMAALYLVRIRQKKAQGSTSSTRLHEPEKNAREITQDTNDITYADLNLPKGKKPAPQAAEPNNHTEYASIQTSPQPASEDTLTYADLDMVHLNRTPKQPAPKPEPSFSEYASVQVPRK
Kindly state EC50 for each of the entries shown.
Give bare numbers, in µg/mL.

Below: 2 binders and their reported EC50.
binder="humanized anti-SIRPα antibody 8 (antibody, human IgG1, kappa, L234A L235A, V domains shown, human IgG1 LALA, kappa; also called mAb 8) VH: RQLVESGGGLVQPGGSLRLSCAASGFSLSSHGISWVRQAPGKGLEYIGTIGTGVITYYASWAKGRFTGSKTSSTAYLQMTSLRAEDTAVYYCARGSAWNDPFDYWGQGTLVTVSS VL: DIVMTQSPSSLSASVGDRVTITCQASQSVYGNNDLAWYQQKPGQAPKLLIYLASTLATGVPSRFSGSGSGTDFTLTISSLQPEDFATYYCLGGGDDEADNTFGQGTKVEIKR" reading_unit=µg/mL readout_value=0.17
binder="humanized anti-SIRPα antibody 7 (antibody, human IgG1, kappa, L234A L235A, V domains shown, human IgG1 LALA, kappa; also called mAb 7) VH: RQLVESGGGLVQPGGSLRLSCAASGFSLSSHGISWVRQAPGKGLEWVGTIGTGVITYYASWAKGRFTGSKTSSTAYLQMTSLRAEDTAVYYCARGSAWNDPFDYWGQGTLVTVSS VL: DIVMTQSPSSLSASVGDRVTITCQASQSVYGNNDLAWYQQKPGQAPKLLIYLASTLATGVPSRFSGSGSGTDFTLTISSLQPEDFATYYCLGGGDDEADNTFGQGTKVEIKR" reading_unit=µg/mL readout_value=0.2

Reported EC50 for humanized anti-SIRPα antibody 11 (antibody, human IgG1, kappa, L234A L235A, V domains shown, human IgG1 LALA, kappa; also called mAb 11) VH: RQLVESGGGLVQPGGSLRLSCAASGFSLSSHGISWVRQAPGKGLEWVGTIGTGVITYYASWAKGRFTGSKTSSTAYLQMTSLRAEDTAVYYCARGSAWNDPFDYWGQGTLVTVSS VL: DIEMTQSPSSVSASVGDRVTLTCQASQSVYGNNDLAWYQQKPGQAPKLLIYLASTLATGVPSRFSGSGSGTDFTLTISSLQPEDFATYYCLGGGDDEADNVFGGGTKVEIKR : what is it?
0.11
